Test system: 699152-130-R-J1-PDC complex spheroid viability;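 further: spheroids exposed to agents for 7 days before viability reading; percent of DMSO vehicle control viability so 100% = vehicle and 0% = no viable signal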
experimental-details: Anticancer human tumor 699152-130-R-J1-PDC patient-derived pancreatic carcinoma cell line growth inhibition [POLQ]
recorded-conditions: second compound 3.16 µM; first compound 0.1 µM; stronger effect = lower value
reported-property: viability, T/C (%)

molecule | unit-spec | value
Cn1ncnc1[C@H]1c2n[nH]c(=O)c3cc(F)cc(c23)N[C@@H]1c1ccc(F)cc1 + Cc1cccc(N(C)C(=O)C2C(O)CCN2c2nc(C)cc(C(F)(F)F)c2C#N)c1 | % | 90.7
CCCS(=O)(=O)Nc1ccc(F)c(C(=O)c2c[nH]c3ncc(-c4ccc(Cl)cc4)cc23)c1F + COC1C(OC(N)=O)C(O)C(Oc2ccc3c(O)c(NC(=O)c4ccc(O)c(CC=C(C)C)c4)c(=O)oc3c2C)OC1(C)C | % | 121
O=c1[nH]cc(F)c(=O)[nH]1 + Cc1cccc(N(C)C(=O)C2C(O)CCN2c2nc(C)cc(C(F)(F)F)c2C#N)c1 | % | 116
Nc1ccn(C2OC(CO)C(O)C2(F)F)c(=O)n1 (stereo unspecified) + Nc1ccc(C#CCN(C(=O)Cc2ncc(C(F)(F)F)cc2C(F)(F)F)c2ccc(F)cc2)nn1 | % | 68.3
CCc1cc2c(N3CCc4c(cc(Cn5ccnc5)cc4-c4cn(C)nc4C(F)(F)F)C3=O)ccnc2c(OC)n1 + Nc1ccc(C#CCN(C(=O)Cc2ncc(C(F)(F)F)cc2C(F)(F)F)c2ccc(F)cc2)nn1 | % | 88.5
COc1cc2cc(C(=O)CCC(=O)O)sc2cc1OC + Cc1cccc(N(C)C(=O)C2C(O)CCN2c2nc(C)cc(C(F)(F)F)c2C#N)c1 | % | 97.8
